Recorded values, source the Deep4Chem optical property database.

# TEST: solvent given as SMILES
# CONDITIONS USED: in CCCCOC(C)=O
Reported fluorescence lifetime values for the following compounds.

COMPOUND: CN(C)c1ccc(/C=C2\CC/C(=C\c3ccc(C#N)cc3)C2=O)cc1
fluorescence lifetime [ns]: 1.01

COMPOUND: N#Cc1cccc2ccccc12
fluorescence lifetime [ns]: 12.9

COMPOUND: Cc1c2oc3c(C)c(N)cc(C(=O)NC4OC(=O)C(C(C)C)N(C)C(=O)CN(C)C(=O)C5CCCN5C(=O)C(C(C)C)NC4=O)c3nc-2c(C(=O)NC2OC(=O)C(C(C)C)N(C)C(=O)CN(C)C(=O)C3CCCN3C(=O)C(C(C)C)NC2=O)c(N)c1=O (configuration not stated)
fluorescence lifetime [ns]: 1.1

COMPOUND: Cc1cc(C(F)(F)F)nc2c1ccc1nc(-c3ccc(Cl)cc3)cn12
fluorescence lifetime [ns]: 6.83

COMPOUND: CN(C)c1ccc(/C=C/C=C2\CC/C(=C\c3ccc(N(C)C)cc3)C2=O)cc1
fluorescence lifetime [ns]: 0.63

COMPOUND: Cc1cc(-c2ccccc2)nc2c1ccc1nc(-c3ccccc3)cn12
fluorescence lifetime [ns]: 6.04

COMPOUND: CC1=C(C(C)(C)C)C(C)=[N+]2C1=C(C)c1c(C)c(C(C)(C)C)c(C)n1[B-]2(F)F
fluorescence lifetime [ns]: 4.51

---

# TEST: solvent given as SMILES
# CONDITIONS USED: in CCCO
MEASUREMENT NAME: log10(fluorescence lifetime) (log10 of the value in ns)

CHEMICAL STRING: CCN(CC)c1ccc2c(C)cc(=O)oc2c1
log10(fluorescence lifetime): 0.54
//
CHEMICAL STRING: COc1ccc2c(=O)c3c([nH]c2c1)-c1ccccc1NC3(C)C
log10(fluorescence lifetime): 1.00
//
CHEMICAL STRING: CCC1(CC)c2cc(-c3ccc(-c4ccc5c(c4)C(CC)(CC)c4cc(C(C)(C)C)ccc4-5)cc3)ccc2-c2ccc(C(C)(C)C)cc21
log10(fluorescence lifetime): -0.14
//
CHEMICAL STRING: N#Cc1coc2ccccc2c1=O
log10(fluorescence lifetime): 0.31
//
CHEMICAL STRING: CN(C)c1ccc(/C=C/C=C2\CC/C(=C\c3ccc(N(C)C)cc3)C2=O)cc1
log10(fluorescence lifetime): 0.05
//
CHEMICAL STRING: O=C([O-])c1ccccc1-c1c2ccc(=O)cc-2oc2cc([O-])ccc12
log10(fluorescence lifetime): 0.65
//
CHEMICAL STRING: CN(C)c1ccc(/C=C/c2cc[n+](CCCOCC(COCCC[n+]3ccc(/C=C/c4ccc(N(C)C)cc4)cc3)(COCCC[n+]3ccc(/C=C/c4ccc(N(C)C)cc4)cc3)COCCC[n+]3ccc(/C=C/c4ccc(N(C)C)cc4)cc3)cc2)cc1
log10(fluorescence lifetime): -0.74
//
CHEMICAL STRING: Cc1nc2c(c[n+]1C)CN1C(=O)N([C@H]3O[C@@H](CO)[C@H](O)[C@@H]3O)C=CC1=N2
log10(fluorescence lifetime): -0.41
//
CHEMICAL STRING: CCOC(=O)c1ccc2c(c1)n(C)c1c3ccc(C(=O)OCC)cc3n(C)c21
log10(fluorescence lifetime): 0.89

---

# TEST: solvent given as SMILES
# CONDITIONS USED: in CCO
Reported fluorescence lifetime values for the following compounds.
MEASUREMENT NAME: fluorescence lifetime (ns)

COMPOUND: COC(=O)C(Cc1ccc2oc(-c3ccc4c(c3)c3ccccc3n4-c3ccccc3)nc2c1)NC(=O)OC(C)(C)C (stereo not given)
MEASUREMENT NAME: fluorescence lifetime
RESULT NUMBER: 1.66
--
COMPOUND: Nc1cccc2c1C(=O)NC2=O
MEASUREMENT NAME: fluorescence lifetime
RESULT NUMBER: 16.3
--
COMPOUND: c1ccc2cc3cnccc3cc2c1
MEASUREMENT NAME: fluorescence lifetime
RESULT NUMBER: 20
--
COMPOUND: O=C1CCCc2c1[nH]c1cc3c(cc21)OCO3
MEASUREMENT NAME: fluorescence lifetime
RESULT NUMBER: 1.36
--
COMPOUND: CCN(CC)c1ccc2c(-c3ccc(S(=O)(=O)O)cc3S(=O)(=O)[O-])c3ccc(=[N+](CC)CC)cc-3oc2c1
MEASUREMENT NAME: fluorescence lifetime
RESULT NUMBER: 3
--
COMPOUND: CN(C)c1ccc2nc(/C=C/c3ccccc3)c(=O)oc2c1
MEASUREMENT NAME: fluorescence lifetime
RESULT NUMBER: 3.77
--
COMPOUND: CC1(C)C(/C=C/C2=C(Cl)C(=C/C=C3/N(CCCCS(=O)(=O)[O-])c4ccc5ccccc5c4C3(C)C)/CCC2)=[N+](CCCCS(=O)(=O)[O-])c2ccc3ccccc3c21
MEASUREMENT NAME: fluorescence lifetime
RESULT NUMBER: 0.38
--
COMPOUND: COc1ccc2c(c1)-c1ccccc1C2=O
MEASUREMENT NAME: fluorescence lifetime
RESULT NUMBER: 1.1
--
COMPOUND: CC1(C)CC(/C=C/c2ccc(-n3cccn3)cc2)=CC(=C(C#N)C#N)C1
MEASUREMENT NAME: fluorescence lifetime
RESULT NUMBER: 0.05
--
COMPOUND: COc1cc2[nH]c3c(c2cc1OCC(=O)O)CCCC3=O
MEASUREMENT NAME: fluorescence lifetime
RESULT NUMBER: 1.69

---

# TEST: solvent given as SMILES
# CONDITIONS USED: in CCCCCCO
Binary call on fluorescence lifetime with cut-off 4 ns: strictly below means yes, and equality or higher means no.

CHEMICAL STRING: CCNc1ccc2c(C(F)(F)F)cc(=O)oc2c1
CLASS LABEL: no
//
CHEMICAL STRING: CCC1=C(C)C2=C(C)c3c(C)c(CC)c(C)n3[B-](F)(F)[N+]2=C1C
CLASS LABEL: no
//
CHEMICAL STRING: O=C1CCCc2c1[nH]c1cc3c(cc21)OCO3
CLASS LABEL: yes
//
CHEMICAL STRING: CCN(CC)c1ccc2c(C)cc(=O)oc2c1
CLASS LABEL: yes
//
CHEMICAL STRING: O=C([O-])c1ccccc1-c1c2ccc(=O)cc-2oc2cc([O-])ccc12
CLASS LABEL: no
//
CHEMICAL STRING: CC1=C(C(C)(C)C)C(C)=[N+]2C1=C(C)c1c(C)c(C(C)(C)C)c(C)n1[B-]2(F)F
CLASS LABEL: no

---

Reported fluorescence lifetime values for the following compounds.
# TEST: solvent given as SMILES
# CONDITIONS USED: in CCO

COMPOUND: F[B-]1(F)n2cccc2C=C2C=CC=[N+]21
fluorescence lifetime / ns: 7.02
//
COMPOUND: c1ccc(-c2nnc(-c3ccc(-n4c5ccccc5c5ccccc54)cc3)o2)cc1
fluorescence lifetime / ns: 2.01
//
COMPOUND: NS(=O)(=O)c1ccc(N2N=C(c3ccc(O)cc3)CC2c2ccc(Br)cc2)cc1 (stereo unspecified)
fluorescence lifetime / ns: 1.84
//
COMPOUND: CCCCOC(=O)c1ccccc1-c1c2ccc(=[N+](CC)CC)cc-2oc2cc(N(CC)CC)ccc12
fluorescence lifetime / ns: 2.92
//
COMPOUND: COC(=O)C(Cc1ccc2oc(-c3ccc(Nc4ccccc4)cc3)nc2c1)NC(=O)OC(C)(C)C (stereo unspecified)
fluorescence lifetime / ns: 0.8
//
COMPOUND: O=C1NC(=O)c2c1c1c3ccccc3[nH]c1c1[nH]c3ccccc3c21
fluorescence lifetime / ns: 7.7
//
COMPOUND: Cc1cc(N(C)C)cc(C)c1/C=C/C=C/c1ccc(C#N)cc1
fluorescence lifetime / ns: 0.58
//
COMPOUND: NS(=O)(=O)c1ccc(N2N=C(c3ccc(O)cc3)CC2c2ccccc2)cc1 (stereo unspecified)
fluorescence lifetime / ns: 1.93
//
COMPOUND: N#Cc1ccc2[nH]ccc2c1
fluorescence lifetime / ns: 4.3
//
COMPOUND: Cc1ccc2sc3cc(CCC(=O)O)ccc3c(=O)c2c1
fluorescence lifetime / ns: 1.7
//
COMPOUND: C(=C\N1CCCC1)/c1nc2ccccc2nc1-c1ccccc1
fluorescence lifetime / ns: 0.49

---

# TEST: solvent given as SMILES
# CONDITIONS USED: in O
Reported fluorescence lifetime values for the following compounds.
MEASUREMENT NAME: fluorescence lifetime

CHEMICAL STRING: O=C(O)CCCCCn1c2ccc(Br)cc2c(=O)c2cc(S(=O)(=O)O)ccc21
RESULT: 7.1 ns

CHEMICAL STRING: CCOC(=O)c1ccccc1-c1c2ccc(=[N+](CC)CC)cc-2oc2c1c(=O)oc1cc(N(CC)CC)ccc12
RESULT: 0.27 ns

CHEMICAL STRING: Nc1ncc2nc[nH]c2n1
RESULT: 11.3 ns

CHEMICAL STRING: COc1cc(/C=C2/SC(=O)NC2=O)ccc1O
RESULT: 0.281 ns

CHEMICAL STRING: N#Cc1ccc2[nH]ccc2c1
RESULT: 0.3 ns

CHEMICAL STRING: Cc1cn(CCCn2cc(C)c(=O)[nH]c2=O)c(=O)nc1-n1cncn1
RESULT: 0.74 ns

CHEMICAL STRING: O=S(=O)([O-])CCC[n+]1c2ccccc2cc2ccccc21
RESULT: 31.2 ns

CHEMICAL STRING: CCOC(=O)c1ccccc1-c1c2ccc(=[N+](CC)CC)cc-2oc2cc(N(CC)CC)ccc12
RESULT: 1.74 ns

CHEMICAL STRING: O=C([O-])c1ccccc1-c1c2ccc(=O)cc-2oc2cc([O-])ccc12
RESULT: 4.16 ns

CHEMICAL STRING: COC(=O)c1ccccc1-c1c2ccc(=[NH2+])cc-2oc2cc(N)ccc12
RESULT: 4.2 ns

CHEMICAL STRING: CCOC(=O)CCCCCn1c2ccc(N)cc2c(=O)c2cc(N)ccc21
RESULT: 11.5 ns
